biological target: 4D11 IgG; experiment: SPR competition binding assay, mAb 4D11; design: species or system mouse; conditions: SPR competition assay (Biacore T200); 3D7 MSP2 immobilised on CM5 chip; eight three-fold dilutions of peptide from 10 µM with 50 nM 4D11 IgG; alanine scan of 16-residue MSP2_207–222; read-out: Kd against 4D11 IgG
Where a SMILES comes first, the peptide text is derived from it. Bridges are numbered along the chain shown (N, C = ends).
assay.endpoint: pKd
pKd here is simply -log10 of the concentration when that concentration is written in mol/L.

[
  {
    "molecule": "CC(=O)N[C@@H](CO)C(=O)N[C@@H](CCC(N)=O)C(=O)N[C@@H](CCCCN)C(=O)N[C@@H](C)C(=O)N[C@H]1CSSC[C@@H](C(=O)NCC(=O)N[C@@H](C)C(=O)N[C@@H](C)C(N)=O)NC(=O)[C@H](CC(N)=O)NC(=O)[C@H](CCC(=O)O)NC(=O)[C@H](CCCCN)NC(=O)[C@H](CC(N)=O)NC(=O)CNC(=O)[C@H](CC(=O)O)NC(=O)[C@H]([C@@H](C)O)NC1=O [Peptide E210A] (Ac-SQKACTDGNKENCGAA-NH2; disulfide 5-13)",
    "pKd": 6.30
  }
]

Now take the following molecule into account.
Form: molecule = CC(=O)N[C@@H](C)C(=O)N[C@@H](CCC(N)=O)C(=O)N[C@@H](CCCCN)C(=O)N[C@@H](CCC(=O)O)C(=O)N[C@H]1CSSC[C@@H](C(=O)NCC(=O)N[C@@H](C)C(=O)N[C@@H](C)C(N)=O)NC(=O)[C@H](CC(N)=O)NC(=O)[C@H](CCC(=O)O)NC(=O)[C@H](CCCCN)NC(=O)[C@H](CC(N)=O)NC(=O)CNC(=O)[C@H](CC(=O)O)NC(=O)[C@H]([C@@H](C)O)NC1=O [Peptide S207A] (Ac-AQKECTDGNKENCGAA-NH2; disulfide 5-13) ; pKd = 6.30

----------
target: 4D11 IgG; experiment: SPR competition binding assay, mAb 4D11; parameters: species or system mouse; details: SPR competition binding assay; peptides for KLH conjugation (Table 2); 3D7 MSP2 on CM5 chip, 50 nM 4D11 IgG; read-out: Kd against 4D11 IgG
Where a SMILES comes first, the peptide text is derived from it. Bridges are numbered along the chain shown (N, C = ends).
Flag rule - Kd less than 500 nM flags Yes; the remaining entries get No.

[
  {
    "compound": "CC(=O)N[C@@H](CO)C(=O)N[C@@H](CCC(N)=O)C(=O)N[C@@H](C)C(=O)N[C@@H](CCC(=O)O)C(=O)N[C@H]1CSSC[C@@H](C(=O)NCC(=O)N[C@@H](C)C(=O)N[C@@H](C)C(N)=O)NC(=O)[C@H](CC(N)=O)NC(=O)[C@H](CCC(=O)O)NC(=O)[C@H](CCCCN)NC(=O)[C@H](CC(N)=O)NC(=O)CNC(=O)[C@H](CC(=O)O)NC(=O)[C@H]([C@@H](C)O)NC1=O [Peptide K209A] (Ac-SQAECTDGNKENCGAA-NH2; disulfide 5-13)",
    "label": "Yes"
  }
]

input: Item C[C@@H]1NC(=O)CNC(=O)[C@@H]2CSSC[C@H](NC(=O)[C@H](CC(N)=O)NC(=O)[C@H](CCC(=O)O)NC(=O)[C@H](CCCCN)NC(=O)[C@H](CC(N)=O)NC(=O)CNC(=O)[C@H](CS)NC(=O)CNC(=O)[C@H](C)NC1=O)C(=O)NCC(=O)N[C@@H](C)C(=O)N[C@@H](C)C(=O)NCC(=O)NCC(=O)NCC(=O)N[C@@H](CC(N)=O)C(=O)N[C@@H](CCCCN)C(=O)N[C@@H](CCC(=O)O)C(=O)N[C@@H](CC(N)=O)C(=O)N2 [Peptide C3] (cyclo(AAGCGNKENCGAAGGGNKENCG); disulfide 10-21) : Kd beneath 500 nM, strictly?
output: No

input: Item C[C@@H]1NC(=O)CNC(=O)[C@@H]2CSSC[C@H](NC(=O)[C@H](CC(N)=O)NC(=O)[C@H](CCC(=O)O)NC(=O)[C@H](CCCCN)NC(=O)[C@H](CC(N)=O)NC(=O)CNC(=O)[C@H](C)NC1=O)C(=O)NCC(=O)N[C@@H](C)C(=O)N[C@@H](C)C(=O)N[C@@H](CS)C(=O)N[C@@H](CC(N)=O)C(=O)N[C@@H](CCCCN)C(=O)N[C@@H](CCC(=O)O)C(=O)N[C@@H](CC(N)=O)C(=O)N2 [Peptide C1] (cyclo(NKENCGAAGNKENCGAAC); disulfide 5-14) : Kd beneath 500 nM, strictly?
output: Yes

input: Item CC(=O)N[C@@H](CC(N)=O)C(=O)N[C@@H](CCCCN)C(=O)N[C@@H](CCC(=O)O)C(=O)N[C@@H](CC(N)=O)C(=O)N[C@H]1CSSC[C@@H](C(=O)NCC(=O)N[C@@H](C)C(=O)N[C@@H](C)C(=O)N[C@@H](CS)C(N)=O)NC(=O)[C@H](CC(N)=O)NC(=O)[C@H](CCC(=O)O)NC(=O)[C@H](CCCCN)NC(=O)[C@H](CC(N)=O)NC(=O)CNC(=O)CNC(=O)[C@H](C)NC(=O)[C@H](C)NC(=O)CNC1=O [Peptide L2] (Ac-NKENCGAAGGNKENCGAAC-NH2; disulfide 5-15) : Kd beneath 500 nM, strictly?
output: No

input: Item C[C@@H]1NC(=O)CNC(=O)[C@@H]2CSSC[C@H](NC(=O)[C@H](CC(N)=O)NC(=O)[C@H](CCC(=O)O)NC(=O)[C@H](CCCCN)NC(=O)[C@H](CC(N)=O)NC(=O)CNC(=O)CNC(=O)[C@H](C)NC1=O)C(=O)NCC(=O)N[C@@H](C)C(=O)N[C@@H](C)C(=O)N[C@@H](CS)C(=O)NCC(=O)N[C@@H](CC(N)=O)C(=O)N[C@@H](CCCCN)C(=O)N[C@@H](CCC(=O)O)C(=O)N[C@@H](CC(N)=O)C(=O)N2 [Peptide C2] (cyclo(AACGNKENCGAAGGNKENCG); disulfide 9-19) : Kd beneath 500 nM, strictly?
output: No

input: Item CC(=O)N[C@@H](CO)C(=O)N[C@@H](CCC(N)=O)C(=O)N[C@@H](CCCCN)C(=O)N[C@@H](CCC(=O)O)C(=O)N[C@H]1CSSC[C@@H](C(=O)NCC(=O)N[C@@H](C)C(=O)N[C@@H](C)C(=O)N[C@@H](CS)C(N)=O)NC(=O)[C@H](CC(N)=O)NC(=O)[C@H](CCC(=O)O)NC(=O)[C@H](CCCCN)NC(=O)[C@H](CC(N)=O)NC(=O)CNC(=O)[C@H](CC(=O)O)NC(=O)[C@H]([C@@H](C)O)NC1=O [Peptide A1] (Ac-SQKECTDGNKENCGAAC-NH2; disulfide 5-13) : Kd beneath 500 nM, strictly?
output: Yes

input: Item CC(=O)N[C@@H](CC(N)=O)C(=O)N[C@@H](CCCCN)C(=O)N[C@@H](CCC(=O)O)C(=O)N[C@@H](CC(N)=O)C(=O)N[C@H]1CSSC[C@@H](C(=O)NCC(=O)N[C@@H](C)C(=O)N[C@@H](C)C(=O)N[C@@H](CS)C(N)=O)NC(=O)[C@H](CC(N)=O)NC(=O)[C@H](CCC(=O)O)NC(=O)[C@H](CCCCN)NC(=O)[C@H](CC(N)=O)NC(=O)CNC(=O)CNC(=O)CNC(=O)[C@H](C)NC(=O)[C@H](C)NC(=O)CNC1=O [Peptide L3] (Ac-NKENCGAAGGGNKENCGAAC-NH2; disulfide 5-16) : Kd beneath 500 nM, strictly?
output: No

input: Item CC(=O)N[C@@H](CC(N)=O)C(=O)N[C@@H](CCCCN)C(=O)N[C@@H](CCC(=O)O)C(=O)N[C@@H](CC(N)=O)C(=O)N[C@H]1CSSC[C@@H](C(=O)NCC(=O)N[C@@H](C)C(=O)N[C@@H](C)C(=O)N[C@@H](CS)C(N)=O)NC(=O)[C@H](CC(N)=O)NC(=O)[C@H](CCC(=O)O)NC(=O)[C@H](CCCCN)NC(=O)[C@H](CC(N)=O)NC(=O)CNC(=O)[C@H](C)NC(=O)[C@H](C)NC(=O)CNC1=O [Peptide L1] (Ac-NKENCGAAGNKENCGAAC-NH2; disulfide 5-14) : Kd beneath 500 nM, strictly?
output: Yes

----------
biological target: 4D11 IgG; assay: SPR competition binding assay, mAb 4D11; set-up: species or system mouse; settings: SPR competition assay (Biacore T200); 3D7 MSP2 immobilised on CM5 chip; eight three-fold dilutions of peptide from 10 µM with 50 nM 4D11 IgG; alanine scan of 16-residue MSP2_207–222; read-out: Kd against 4D11 IgG
Where a SMILES comes first, the peptide text is derived from it. Bridges are numbered along the chain shown (N, C = ends).
assay.endpoint: Kd (nM)
Only the number, expressed in nM, is required.

[
  {
    "compound": "CC(=O)N[C@@H](CO)C(=O)N[C@@H](CCC(N)=O)C(=O)N[C@@H](CCCCN)C(=O)N[C@@H](CCC(=O)O)C(=O)N[C@H]1CSSC[C@@H](C(=O)NCC(=O)N[C@@H](C)C(=O)N[C@@H](C)C(N)=O)NC(=O)[C@H](CC(N)=O)NC(=O)[C@H](CCC(=O)O)NC(=O)[C@H](C)NC(=O)[C@H](CC(N)=O)NC(=O)CNC(=O)[C@H](CC(=O)O)NC(=O)[C@H]([C@@H](C)O)NC1=O [Peptide K216A] (Ac-SQKECTDGNAENCGAA-NH2; disulfide 5-13)",
    "measurement": 21000
  },
  {
    "compound": "CC(=O)N[C@@H](CO)C(=O)N[C@@H](C)C(=O)N[C@@H](CCCCN)C(=O)N[C@@H](CCC(=O)O)C(=O)N[C@H]1CSSC[C@@H](C(=O)NCC(=O)N[C@@H](C)C(=O)N[C@@H](C)C(N)=O)NC(=O)[C@H](CC(N)=O)NC(=O)[C@H](CCC(=O)O)NC(=O)[C@H](CCCCN)NC(=O)[C@H](CC(N)=O)NC(=O)CNC(=O)[C@H](CC(=O)O)NC(=O)[C@H]([C@@H](C)O)NC1=O [Peptide Q208A] (Ac-SAKECTDGNKENCGAA-NH2; disulfide 5-13)",
    "measurement": 400
  },
  {
    "compound": "CC(=O)N[C@@H](CO)C(=O)N[C@@H](CCC(N)=O)C(=O)N[C@@H](CCCCN)C(=O)N[C@@H](CCC(=O)O)C(=O)N[C@H]1CSSC[C@@H](C(=O)NCC(=O)N[C@@H](C)C(=O)N[C@@H](C)C(N)=O)NC(=O)[C@H](CC(N)=O)NC(=O)[C@H](CCC(=O)O)NC(=O)[C@H](CCCCN)NC(=O)[C@H](CC(N)=O)NC(=O)CNC(=O)[C@H](C)NC(=O)[C@H]([C@@H](C)O)NC1=O [Peptide D213A] (Ac-SQKECTAGNKENCGAA-NH2; disulfide 5-13)",
    "measurement": 500
  },
  {
    "compound": "CC(=O)N[C@@H](CO)C(=O)N[C@@H](CCC(N)=O)C(=O)N[C@@H](CCCCN)C(=O)N[C@@H](CCC(=O)O)C(=O)N[C@H]1CSSC[C@@H](C(=O)NCC(=O)N[C@@H](C)C(=O)N[C@@H](C)C(N)=O)NC(=O)[C@H](CC(N)=O)NC(=O)[C@H](CCC(=O)O)NC(=O)[C@H](CCCCN)NC(=O)[C@H](CC(N)=O)NC(=O)[C@H](C)NC(=O)[C@H](CC(=O)O)NC(=O)[C@H]([C@@H](C)O)NC1=O [Peptide G214A] (Ac-SQKECTDANKENCGAA-NH2; disulfide 5-13)",
    "measurement": 400
  }
]

Now take the following compound into account.
Form: compound = CC(=O)N[C@@H](CO)C(=O)N[C@@H](CCC(N)=O)C(=O)N[C@@H](CCCCN)C(=O)N[C@@H](CCC(=O)O)C(=O)N[C@H]1CSSC[C@@H](C(=O)NCC(=O)N[C@@H](C)C(=O)N[C@@H](C)C(N)=O)NC(=O)[C@H](CC(N)=O)NC(=O)[C@H](CCC(=O)O)NC(=O)[C@H](CCCCN)NC(=O)[C@H](CC(N)=O)NC(=O)CNC(=O)[C@H](CC(=O)O)NC(=O)[C@H](C)NC1=O [Peptide T212A] (Ac-SQKECADGNKENCGAA-NH2; disulfide 5-13) ; Kd = 500
